Entries and their Average EC50, viability assay, Jurkat (CD45+), 5 days values follow.
test.target: T1, human CD45 (human, UniProt P08575 26-1306)
T1 sequence: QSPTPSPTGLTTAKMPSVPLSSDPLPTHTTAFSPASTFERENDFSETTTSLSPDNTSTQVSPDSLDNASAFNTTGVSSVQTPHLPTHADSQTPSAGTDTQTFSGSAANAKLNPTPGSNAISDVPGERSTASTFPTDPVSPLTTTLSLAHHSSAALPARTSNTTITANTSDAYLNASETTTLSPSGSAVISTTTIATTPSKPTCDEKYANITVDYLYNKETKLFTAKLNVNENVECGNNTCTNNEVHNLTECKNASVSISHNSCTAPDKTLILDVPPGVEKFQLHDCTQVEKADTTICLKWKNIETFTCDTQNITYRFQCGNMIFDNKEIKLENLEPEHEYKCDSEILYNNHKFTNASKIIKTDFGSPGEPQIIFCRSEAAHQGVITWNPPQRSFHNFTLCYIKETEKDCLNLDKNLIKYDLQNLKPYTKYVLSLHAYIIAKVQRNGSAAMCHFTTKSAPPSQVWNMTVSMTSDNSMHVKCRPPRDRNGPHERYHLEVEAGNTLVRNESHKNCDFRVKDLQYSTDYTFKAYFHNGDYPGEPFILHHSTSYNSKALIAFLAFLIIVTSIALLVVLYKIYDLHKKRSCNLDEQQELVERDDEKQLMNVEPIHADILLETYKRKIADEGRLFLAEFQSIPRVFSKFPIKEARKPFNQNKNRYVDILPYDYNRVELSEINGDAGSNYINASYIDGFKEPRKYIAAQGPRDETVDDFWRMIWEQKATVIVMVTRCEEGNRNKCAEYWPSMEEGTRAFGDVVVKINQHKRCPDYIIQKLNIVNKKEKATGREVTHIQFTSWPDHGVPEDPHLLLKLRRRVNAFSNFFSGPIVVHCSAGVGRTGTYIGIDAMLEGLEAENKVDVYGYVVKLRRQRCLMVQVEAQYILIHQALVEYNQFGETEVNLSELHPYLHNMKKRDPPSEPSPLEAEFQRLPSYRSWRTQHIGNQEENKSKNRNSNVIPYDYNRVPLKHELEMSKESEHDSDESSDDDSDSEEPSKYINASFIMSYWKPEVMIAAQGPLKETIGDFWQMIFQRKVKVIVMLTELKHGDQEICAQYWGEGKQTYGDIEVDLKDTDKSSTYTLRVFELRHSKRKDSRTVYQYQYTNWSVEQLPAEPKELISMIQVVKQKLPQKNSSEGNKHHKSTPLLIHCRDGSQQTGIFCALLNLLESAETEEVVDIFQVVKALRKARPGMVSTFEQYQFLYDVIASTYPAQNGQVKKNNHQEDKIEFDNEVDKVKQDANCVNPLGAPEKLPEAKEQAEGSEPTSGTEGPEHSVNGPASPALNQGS
assay.details: cell-based or functional assay
API: value field is a number in pM; no unit string.

Consider the following illustrative entries.
binder	readout.unit	reported.measurement
YTH54.12-B4 (antibody, V domains shown, PBD drug-linker B4 (non-cleavable) conjugated; sites and DAR not stated) VH: EVQLVESGGGLVQPGGSMKLSCAASGFTFSDYYMAWVRQAPKKGLEWVASMSFAGSSTYYGDSVKGRFTISRDNAKTTLYLQMNSLRSEDTATYYCARMYTTDYYLYWYFDFWGPGTMVTVSS VL: DVQMTQSPSYLAASPGESVSISCKASKSISNYLAWYQQKPGEANKILIYSGSTLQSGTPSRFSGSGSGTDFSLTIRNLEPEDFAVYYCQQYDEKPLTFGSGTKLEIKR	pM	0.091
YTH54.12-B2 (antibody, V domains shown, PBD drug-linker B2 conjugated; sites and DAR not stated) VH: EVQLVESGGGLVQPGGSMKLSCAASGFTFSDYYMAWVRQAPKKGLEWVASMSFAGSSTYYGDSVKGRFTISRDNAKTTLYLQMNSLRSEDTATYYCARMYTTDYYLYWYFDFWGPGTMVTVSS VL: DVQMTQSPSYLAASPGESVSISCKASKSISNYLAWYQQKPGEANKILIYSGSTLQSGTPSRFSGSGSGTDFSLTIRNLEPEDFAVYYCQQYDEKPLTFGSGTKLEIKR	pM	2.43

# next binder below
Challenge: So what does the record say about Average EC50, viability assay, Jurkat (CD45+), 5 days for YTH54.12-rat IgG2b-PBD (drug-linker B1) (antibody, V domains shown, PBD dimer drug-linker B1; light chains unconjugated or attached to a single molecule of B1; sites not given; PBD dimer drug-linker B1 conjugated after TCEP reduction; heavy chains attached to up to five molecules of B1; sites not given; DAR 1.90 (preparation) / 2.00) VH: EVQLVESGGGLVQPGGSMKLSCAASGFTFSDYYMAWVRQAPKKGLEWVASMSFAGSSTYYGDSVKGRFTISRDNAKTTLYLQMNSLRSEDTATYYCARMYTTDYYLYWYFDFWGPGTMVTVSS VL: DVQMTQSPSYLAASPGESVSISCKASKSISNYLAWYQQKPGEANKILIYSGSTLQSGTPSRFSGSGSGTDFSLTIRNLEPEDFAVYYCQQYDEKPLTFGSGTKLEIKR ?
Response given: 0.127
